- experimental_protocol: Pharmacokinetics of epothilone D in patients (plasma levels by LC/MS/MS after intravenous infusion)
- Assay type: in vivo, human
- condition: human, in vivo; patients treated at 100 mg/m^2, averaged; read-out: elimination half-life (converted)

| compound | half-life (h) |
| --- | --- |
| C/C1=C/C[C@@H](/C(C)=C/c2csc(C)n2)OC(=O)C[C@H](O)C(C)(C)C(=O)[C@H](C)[C@@H](O)[C@@H](C)CCC1 | 8.8 |

###

- experimental_protocol: Pharmacokinetics of epothilone D in patients (plasma levels by LC/MS/MS after intravenous infusion)
- Format: in vivo, human
- condition: human, in vivo; patients treated at 100 mg/m^2, averaged; read-out: Drug clearance (converted)
- Experimental: H1/H2 blockers were given orally to the subjects 30-60 minutes prior to infusion to prevent any adverse reactions to the CREMOPHOR® in the composition. […] The patients were monitored by testing CBC with differential weekly, various laboratory tests every three weeks, and physical exams including neurological assessment every three weeks. […] Both the pharmacokinetics and pharmacodynamics of epothilone D were measured in the subjects. […]
experimental_readout: clearance (mL/min)

| compound | quantitative_readout |
| --- | --- |
| C/C1=C/C[C@@H](/C(C)=C/c2csc(C)n2)OC(=O)C[C@H](O)C(C)(C)C(=O)[C@H](C)[C@@H](O)[C@@H](C)CCC1 [epothilone D, Desoxyepothilone B] | 315 |

###

- experimental_protocol: Pharmacokinetics of epothilone D in patients (plasma levels by LC/MS/MS after intravenous infusion)
- Format: in vivo, human
- condition: human, in vivo; intravenous infusion, summary over study; read-out: half-life, mean value

| compound | half-life |
| --- | --- |
| C/C1=C/C[C@@H](/C(C)=C/c2csc(C)n2)OC(=O)C[C@H](O)C(C)(C)C(=O)[C@H](C)[C@@H](O)[C@@H](C)CCC1 | 8 to 10 h |
